# System: awake guinea pig (cholinergically-induced bronchial cramps)
# experiment: inhalative provocation with acetyl-β-methylcholine chloride aerosol on awake guinea pigs (broncholytic/protective action)
# Format: in vivo
# assay.setup: acetyl-β-methylcholine chloride w=0.005620; animals reacting with dyspnoea; pre-treatment 3×10^-7 mol ml^-1 kg^-1 i.p.
Structures can show the parent of a compound that is named as a salt.
Item-by-item account of probit analysis reaction % observed
quantity: probit analysis reaction % observed (%)

>>> obs_value("O=C(O[C@H]1C[C@H]2CC[C@@H](C1)[N+]21CCCC1)C(O)(c1ccccc1)c1ccccc1 [trospium chloride]")
70.00
>>> obs_value("CN1[C@@H]2CC[C@H]1C[C@@H](OC(=O)C(CO)c1ccccc1)C2 (stereo partly shown) [atropine chloride, atropine hydrochloride, reference compound]")
70.00
>>> obs_value("CC(C)NCC(O)c1ccc(O)c(O)c1 (stereo not shown) [isoproterenol, reference compound]")
88.89
>>> obs_value("O=C(OC1CC2CCC(C1)[N+]21CC=CC1)C(O)(c1ccccc1)c1ccccc1 (stereo not shown) [dehydrotrospium chloride]")
70.00
